Sourced from patent US5753661A

Target: 5-HT1A receptor (Rattus norvegicus, UniProt P19327)
Sequence (P19327 1-422): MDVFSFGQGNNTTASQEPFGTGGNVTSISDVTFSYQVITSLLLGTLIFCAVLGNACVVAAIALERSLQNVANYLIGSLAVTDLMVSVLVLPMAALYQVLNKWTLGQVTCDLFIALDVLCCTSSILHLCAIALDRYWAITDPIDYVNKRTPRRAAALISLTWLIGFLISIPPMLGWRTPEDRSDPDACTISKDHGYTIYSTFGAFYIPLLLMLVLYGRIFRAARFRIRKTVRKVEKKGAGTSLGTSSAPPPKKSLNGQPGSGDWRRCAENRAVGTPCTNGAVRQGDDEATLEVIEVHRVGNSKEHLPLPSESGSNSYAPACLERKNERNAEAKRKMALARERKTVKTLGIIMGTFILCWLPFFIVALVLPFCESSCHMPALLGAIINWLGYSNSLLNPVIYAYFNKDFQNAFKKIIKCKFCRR
Experiment: Inhibition of 5-MeO-DMT-induced 5-HT syndrome in rats
Assay type: in vivo, rat (male Wistar)
Set-up: Male Wistar rats (Mol:Wist) weighing 170-240 g are used; from tissue; host or cells: living male Wistar rat (Mol:Wist) (in vivo, endogenous receptor)
Conditions: sc, 5-MeO-DMT 5 mg/kg s.c., inhibition of piano playing
readout_type: ED50 (µmol/kg)

Answered examples (5):
>  <smiles_repr>
O=S(=O)(CCCN1CCN(c2cccc3c2OCC3)CC1)C1CCCCC1

>  <target_of_assay>
5-HT1A receptor (Rattus norvegicus, UniProt P19327)

>  <ED50 / µmol/kg>
12

$$$$
>  <smiles_repr>
O=C1N(CCCN2CCN(c3cccc4c3OCCO4)CC2)CCN1c1ccccc1

>  <target_of_assay>
5-HT1A receptor (Rattus norvegicus, UniProt P19327)

>  <ED50 / µmol/kg>
6.6

$$$$
>  <smiles_repr>
O=C1N(CCN2CCN(c3cccc4c3OCCO4)CC2)CCN1C1CCCCC1

>  <target_of_assay>
5-HT1A receptor (Rattus norvegicus, UniProt P19327)

>  <ED50 / µmol/kg>
10

$$$$
>  <smiles_repr>
O=C1N(CCCCN2CCN(c3cccc4c3OCCO4)CC2)CCN1C1CCCCC1

>  <target_of_assay>
5-HT1A receptor (Rattus norvegicus, UniProt P19327)

>  <ED50 / µmol/kg>
4.7

$$$$
>  <smiles_repr>
O=S(=O)(CCCN1CCN(c2cccc3c2OCCO3)CC1)c1ccccc1

>  <target_of_assay>
5-HT1A receptor (Rattus norvegicus, UniProt P19327)

>  <ED50 / µmol/kg>
9.5

$$$$

a = CC(C)N1CCN(CCN2CCN(c3cccc4c3OCCO4)CC2)C1=O
b = CC1(C)Cc2cccc(N3CCN(CCCCN4CCN(C5CCCCC5)C4=O)CC3)c2O1
input: Lower ED50: a or b ? Kindly state the label of the option you pick.
output: b
(b: 0.78 µmol/kg, a: 9 µmol/kg)

A = O=C1N(CCN2CCN(c3cccc4c3OCCO4)CC2)CCN1c1ccccc1
B = CC(C)S(=O)(=O)CCCN1CCN(c2cccc3c2OCCO3)CC1
input: Which entry has a larger number for ED50, A or B ? Answer format: the label of the selected item.
output: A
